Provide the recorded IC50 (ug/ml) VZV for the entries that follow.
Tested on: VZV strain Ellen
Experiment: VZV Antiviral (ELISA) assay
Assay type: cell-based
Details: VZV strain Ellen in HFF cells

In: Consider the molecule shown here: Cc1nc2cc(NC(=S)Nc3ccc(NC(=O)c4ccco4)cc3)ccc2[nH]1 [Example 495] What is its recorded IC50 (ug/ml) VZV?
Out: >10 µg/mL

In: Consider the molecule shown here: COc1cc(OC)c(NC(=S)Nc2ccc(NC(=O)c3ccc([N+](=O)[O-])o3)cc2)cc1Cl [Example 161] What is its recorded IC50 (ug/ml) VZV?
Out: 5 µg/mL

In: Consider the molecule shown here: Nc1c(Cl)cc(C(F)(F)F)cc1NC(=S)Nc1ccc(NC(=O)c2csnn2)cc1 [Example 534] What is its recorded IC50 (ug/ml) VZV?
Out: >10 µg/mL

In: Consider the molecule shown here: O=C(Nc1ccc(NC(=S)NCCc2ccc(Cl)c(Cl)c2)cc1)c1csnn1 [Example 645] What is its recorded IC50 (ug/ml) VZV?
Out: 10 µg/mL

In: Consider the molecule shown here: O=C(Nc1ccc(NC(=S)NCc2ccc(F)c(C(F)(F)F)c2)cc1)c1csnn1 [Example 624] What is its recorded IC50 (ug/ml) VZV?
Out: >10 µg/mL

In: Consider the molecule shown here: COc1ccc(CCNC(=S)Nc2ccc(NC(=O)c3ccco3)cc2)cc1OC [Example 611] What is its recorded IC50 (ug/ml) VZV?
Out: >10 µg/mL

In: Consider the molecule shown here: CC(NC(=S)Nc1ccc(NC(=O)c2csnn2)cc1)c1ccc(C#N)cc1 (centres unmarked) [Example 822] What is its recorded IC50 (ug/ml) VZV?
Out: >7.5 µg/mL

In: Consider the molecule shown here: COc1cc(OC)c(NC(=S)Nc2ccc(NC(=O)c3cccnc3)cc2)cc1Cl [Example 160] What is its recorded IC50 (ug/ml) VZV?
Out: >10 µg/mL

* * *

Test system: HSV-1
Test: HSV Antiviral (ELISA) assay
Type: cell-based
Conditions: HSV-1 in Vero cells
Rule: IC50 (ug/ml) HSV below 5 µg/mL gives TRUE, anything at or above gives FALSE.

In: For COc1cc(OC)c(NC(=S)Nc2ccc(NC(=O)c3cncc4ccccc34)cc2)cc1Cl [Example 172] , is the recorded IC50 (ug/ml) HSV below the cut-off of 5 µg/mL?
Out: FALSE

In: For O=C(Nc1ccc(NC(=S)NCc2ccccc2)cc1)c1ccco1 [Example 544] , is the recorded IC50 (ug/ml) HSV below the cut-off of 5 µg/mL?
Out: FALSE

In: For O=C(Nc1ccc(NC(=S)NCCSc2cccc(Br)c2)cc1)c1csnn1 [Example 678] , is the recorded IC50 (ug/ml) HSV below the cut-off of 5 µg/mL?
Out: FALSE

In: For COc1cc(C)c(Cl)cc1NC(=S)Nc1ccc(NC(=O)c2ccccn2)cc1 [Example 352] , is the recorded IC50 (ug/ml) HSV below the cut-off of 5 µg/mL?
Out: TRUE

In: For O=C(Nc1ccc(NC(=S)NCCOc2cccc(Br)c2)cc1)c1csnn1 [Example 734] , is the recorded IC50 (ug/ml) HSV below the cut-off of 5 µg/mL?
Out: FALSE

In: For O=C(Nc1ccc(CNC(=S)Nc2ccc(Cl)c(C(F)(F)F)c2)cc1)c1csnn1 [Example 631] , is the recorded IC50 (ug/ml) HSV below the cut-off of 5 µg/mL?
Out: FALSE

In: For CN1CCC(N(C)c2ccc(NC(=S)Nc3ccc(NC(=O)c4ccco4)cc3)cc2Cl)CC1 [Example 344] , is the recorded IC50 (ug/ml) HSV below the cut-off of 5 µg/mL?
Out: TRUE

In: For O=C(Nc1ccc(NC(=S)NCCNc2ccccc2)cc1)c1csnn1 [Example 706] , is the recorded IC50 (ug/ml) HSV below the cut-off of 5 µg/mL?
Out: FALSE

In: For COc1cc(OC)c(NC(=S)Nc2ccc(NC(=O)c3csnn3)cc2)cc1Cl [Example 173] , is the recorded IC50 (ug/ml) HSV below the cut-off of 5 µg/mL?
Out: FALSE

In: For O=C(Nc1ccc(NC(=S)NCc2cc(C(F)(F)F)ccc2F)cc1)c1cscn1 [Example 746] , is the recorded IC50 (ug/ml) HSV below the cut-off of 5 µg/mL?
Out: FALSE

In: For CSc1ccc(NC(=S)Nc2ccc(NC(=O)c3ccccn3)cc2)cc1Cl [Example 351] , is the recorded IC50 (ug/ml) HSV below the cut-off of 5 µg/mL?
Out: TRUE

In: For O=C(Nc1ccc(NC(=S)NCCSc2cc(C(F)(F)F)ccc2F)cc1)c1csnn1 [Example 711] , is the recorded IC50 (ug/ml) HSV below the cut-off of 5 µg/mL?
Out: FALSE

In: For O=C(Nc1ccc(NC(=S)NCCOc2ccccc2)cc1)c1ccco1 [Example 626] , is the recorded IC50 (ug/ml) HSV below the cut-off of 5 µg/mL?
Out: FALSE

In: For O=C(Nc1ccc(NC(=S)Nc2cc(C(F)(F)F)cc(C(F)(F)F)c2)cc1)c1cscn1 [Example 701] , is the recorded IC50 (ug/ml) HSV below the cut-off of 5 µg/mL?
Out: FALSE

In: For O=C(Nc1ccc(NC(=S)NCc2ccc(Cl)c(Cl)c2)cc1)c1ccco1 [Example 545] , is the recorded IC50 (ug/ml) HSV below the cut-off of 5 µg/mL?
Out: TRUE

In: For CC(NC(=S)Nc1ccc(NC(=O)c2csnn2)cc1)c1ccc(F)cc1 (stereo not shown) [Example 565] , is the recorded IC50 (ug/ml) HSV below the cut-off of 5 µg/mL?
Out: FALSE

In: For CN(C)CCCc1cc(NC(=S)Nc2ccc(NC(=O)c3csnn3)cc2)cc(C(F)(F)F)c1 [Example 654] , is the recorded IC50 (ug/ml) HSV below the cut-off of 5 µg/mL?
Out: FALSE

In: For O=C(Nc1ccc(NC(=S)NCc2cc(C(F)(F)F)ccc2F)cc1)c1ccco1 [Example 670] , is the recorded IC50 (ug/ml) HSV below the cut-off of 5 µg/mL?
Out: FALSE

In: For COc1ccc(CCNC(=S)Nc2ccc(NC(=O)c3csnn3)cc2)cc1 [Example 652] , is the recorded IC50 (ug/ml) HSV below the cut-off of 5 µg/mL?
Out: FALSE

In: For CC(C)(C)c1ccc(CNC(=S)Nc2ccc(NC(=O)c3cscn3)cc2)cc1 [Example 747] , is the recorded IC50 (ug/ml) HSV below the cut-off of 5 µg/mL?
Out: FALSE

In: For Nc1c(Cl)cc(C(F)(F)F)cc1NC(=S)Nc1ccc(NC(=O)c2csnn2)cc1 [Example 534] , is the recorded IC50 (ug/ml) HSV below the cut-off of 5 µg/mL?
Out: FALSE
